- Test method notes: gradient 5% acetonitrile 3 min, to 50% in 2 min, to 85% in 15 min, held 3 min, 100 µL/min
- Condition context: column: Zorbax Extend-C18 2.1 x 50 mm; eluents: water / acetonitrile, 0.1% formic acid

>  <Compound>
CN(C)CCNC(=O)c1nc(N2CCSCC2)c2cnn(C)c2n1

>  <RP-LC retention time, s>
560

$$$$
>  <Compound>
CCOc1ccccc1NC(=O)C1CCN(S(=O)(=O)c2ccc3[nH]c(=O)ccc3c2)CC1

>  <RP-LC retention time, s>
789

$$$$
>  <Compound>
CCn1cc(CCN2CCN(C(=O)c3ccc(Br)cc3)CC2)c2cccnc21

>  <RP-LC retention time, s>
629

$$$$
>  <Compound>
Cc1ccc(-c2ncccc2CNS(=O)(=O)c2ccc(F)c(C)c2)cc1

>  <RP-LC retention time, s>
743

$$$$
>  <Compound>
O=C(O)c1cc(-c2cccs2)n(C2CCS(=O)(=O)C2)n1 (stereo not given)

>  <RP-LC retention time, s>
630

$$$$
>  <Compound>
CCN(CC)CCNC(=O)c1ccnc(-c2cccs2)c1

>  <RP-LC retention time, s>
597

$$$$
>  <Compound>
COc1ccc(C2(C(=O)N3CCN(C(=O)c4cc(-c5ccncc5)n[nH]4)CC3)CC2)cc1

>  <RP-LC retention time, s>
610

$$$$
>  <Compound>
CSc1ccc(CNC(=O)Cn2c(C)cc(C)c(C#N)c2=O)cc1

>  <RP-LC retention time, s>
698

$$$$
>  <Compound>
CC1(C)CC(=O)c2cn(-c3ccc(F)cc3)c(=O)c(C(=O)N3CCOCC3)c2C1

>  <RP-LC retention time, s>
695

$$$$
>  <Compound>
CC1=C(C(=O)NCCCN2CC(C)CC(C)C2)C2(CCN(Cc3ccccc3)CC2)OC1=O (stereo not given)

>  <RP-LC retention time, s>
567

$$$$
>  <Compound>
C=CCN1C(=O)COc2ccc(-c3nc(NC(=O)c4ccccc4)sc3C)cc21

>  <RP-LC retention time, s>
1040

$$$$
>  <Compound>
CC(C)CC(=O)Nc1ccc(-n2cnc(C(=O)N3CCC4(CC3)OCCO4)c2)nc1

>  <RP-LC retention time, s>
677

$$$$
>  <Compound>
Cc1cccc(-c2noc(CN3N=NC4C(=O)N(c5ccccc5)C(=O)C43)n2)c1 (stereo not given)

>  <RP-LC retention time, s>
989

$$$$
>  <Compound>
O=C(c1ccc(-c2ccc([N+](=O)[O-])cc2Cl)o1)N1CCOCC1

>  <RP-LC retention time, s>
778

$$$$
>  <Compound>
Cc1ccc(CNS(=O)(=O)c2c(C)nc3sc(C)nn23)o1

>  <RP-LC retention time, s>
710

$$$$
>  <Compound>
COc1cccc(C2NC(=O)NC(C)=C2C(=O)OC2CCCCCC2)c1OC (stereo not given)

>  <RP-LC retention time, s>
971

$$$$
>  <Compound>
O=C1NCCCn2cc(S(=O)(=O)N3CCN(c4ccccn4)CC3)cc21

>  <RP-LC retention time, s>
550

$$$$
>  <Compound>
COc1cc(N)c(Cl)cc1C(=O)NC1CN2CCC1CC2 (stereo not given)

>  <RP-LC retention time, s>
615

$$$$
>  <Compound>
CCS(=O)(=O)N1CC(F)(F)C[C@H]1c1nnc(-c2ccccc2)o1

>  <RP-LC retention time, s>
824

$$$$
>  <Compound>
Fc1ccc(-c2ccc(CNCCCn3ccnc3)o2)cc1Cl

>  <RP-LC retention time, s>
585

$$$$
